Where these numbers come from: paper PMC4830892

- Tested on: proteins in Jurkat cell lysate (total cellular proteome)
- assay: Competition of α-pY antibody binding with Jurkat cell lysate on peptide microarrays
- particulars: from EC50 and Kd α-pY by Cheng-Prusoff equation (Eq. 4); ± standard deviation
Non-standard residues stand in square brackets, D forms with d. Residues, ends and D or L forms follow the SMILES beside them. pY = N[C@@H](Cc1ccc(OP(=O)(O)O)cc1)C(=O)O
parameter measured: pKd
# pKd: negative log10 of molar concentration; output just the value

Below: 6 molecules and their reported pKd.
{"columns": ["molecule", "pKd"],
 "data": [
  ["CC(C)C[C@H](NC(=O)[C@H](CCC(=O)O)NC(=O)[C@H](CCC(=O)O)NC(=O)[C@@H]1CCCN1C(=O)[C@H](CC(=O)O)NC(=O)[C@H](CO)NC(=O)[C@H](Cc1ccc(OP(=O)(O)O)cc1)NC(=O)[C@@H]1CCCN1C(=O)[C@H](CO)NC(=O)[C@H](CCC(=O)O)NC(=O)[C@H](Cc1ccc(O)cc1)NC(=O)[C@@H](NC(=O)[C@@H](N)CS)C(C)C)C(=O)N[C@@H](CCCCN)C(=O)N[C@@H](CC(=O)O)C(N)=O [ZAPpY319] (H-CVYESP[pY]SDPEELKD-NH2)", 4.59],
  ["CC[C@H](C)[C@H](NC(=O)[C@H](CCC(=O)O)NC(=O)[C@H](CCCNC(=N)N)NC(=O)[C@H](CCC(=O)O)NC(=O)[C@H](CCC(=O)O)NC(=O)CNC(=O)[C@@H](N)CS)C(=O)N[C@@H](CCC(N)=O)C(=O)N[C@@H](Cc1ccc(OP(=O)(O)O)cc1)C(=O)N[C@@H](C)C(=O)N1CCC[C@H]1C(=O)N[C@@H](CC(C)C)C(=O)N[C@@H](CO)C(=O)N[C@@H](Cc1ccccc1)C(=O)N[C@@H](Cc1c[nH]cn1)C(=O)N[C@@H](CCCCN)C(=O)NCC(N)=O [SigpY437] (H-CGEEREIQ[pY]APLSFHKG-NH2)", 4.66],
  ["CSCC[C@H](NC(=O)[C@@H]1CCCN1C(=O)[C@H](CC(N)=O)NC(=O)[C@H](C)NC(=O)[C@H](CCC(=O)O)NC(=O)[C@@H](NC(=O)[C@H](Cc1ccc(OP(=O)(O)O)cc1)NC(=O)[C@H](Cc1ccccc1)NC(=O)CNC(=O)[C@@H]1CCCN1C(=O)[C@H](CC(N)=O)NC(=O)[C@H](CCCNC(=N)N)NC(=O)CNC(=O)[C@H](CCC(=O)O)NC(=O)[C@@H](N)CS)C(C)C)C(=O)N1CCC[C@H]1C(=O)N[C@H](C(N)=O)[C@@H](C)O [PLCγpY783] (H-CEGRNPGF[pY]VEANPMPT-NH2)", 5.15],
  ["CC[C@H](C)[C@H](NC(=O)CNC(=O)[C@H](CC(=O)O)NC(=O)[C@H](Cc1ccc(OP(=O)(O)O)cc1)NC(=O)[C@@H](NC(=O)[C@H](CC(=O)O)NC(=O)[C@H](CC(=O)O)NC(=O)[C@H](CC(=O)O)NC(=O)[C@@H](N)CS)[C@@H](C)CC)C(=O)N[C@@H](CCC(=O)O)C(=O)N[C@@H](CCC(=O)O)C(=O)N[C@@H](CCC(=O)O)C(=O)N[C@@H](CC(=O)O)C(N)=O [FYBpY625] (H-CDDDI[pY]DGIEEED-NH2)", 4.77],
  ["CC[C@H](C)[C@H](NC(=O)[C@H](CC(=O)O)NC(=O)[C@H](CC(=O)O)NC(=O)[C@H](Cc1ccc(OP(=O)(O)O)cc1)NC(=O)[C@@H](NC(=O)[C@H](CCC(=O)O)NC(=O)CNC(=O)[C@H](CC(=O)O)NC(=O)[C@H](CC(N)=O)NC(=O)[C@@H](N)CS)[C@@H](C)CC)C(=O)N[C@@H](C)C(=O)N[C@@H](CC(=O)O)C(=O)NCC(N)=O [FYBpY771] (H-CNDGEI[pY]DDIADG-NH2)", 5.30],
  ["CC(C)C[C@H](NC(=O)[C@H](CCC(=O)O)NC(=O)[C@H](CCC(N)=O)NC(=O)[C@H](CO)NC(=O)[C@@H](NC(=O)[C@H](CC(N)=O)NC(=O)[C@@H](NC(=O)[C@H](Cc1ccc(OP(=O)(O)O)cc1)NC(=O)[C@H](CCC(=O)O)NC(=O)[C@H](CCCNC(=N)N)NC(=O)[C@H](CO)NC(=O)CNC(=O)[C@H](CC(=O)O)NC(=O)[C@H](CC(C)C)NC(=O)[C@H](CO)NC(=O)[C@H](C)NC(=O)[C@H](CCC(=O)O)NC(=O)[C@@H](N)CS)C(C)C)C(C)C)C(N)=O [LATpY191] (H-CEASLDGSRE[pY]VNVSQEL-NH2)", 4.80]
]}

Please look at the following molecule next.
Asked: Tell me its pKd on proteins in Jurkat cell lysate (total cellular proteome): CC(C)C[C@H](NC(=O)[C@H](CC(N)=O)NC(=O)[C@H](CCC(=O)O)NC(=O)[C@H](Cc1ccc(OP(=O)(O)O)cc1)NC(=O)[C@@H](NC(=O)[C@H](CC(=O)O)NC(=O)[C@H](CCC(=O)O)NC(=O)[C@H](CCCCN)NC(=O)[C@H](Cc1c[nH]cn1)NC(=O)[C@H](CCCCN)NC(=O)[C@H](CO)NC(=O)[C@@H](N)CS)C(C)C)C(=O)N[C@@H](Cc1c[nH]cn1)C(=O)N[C@H](C(=O)N[C@@H](CCCCN)C(=O)N[C@@H](CC(N)=O)C(=O)N[C@@H](CCCCN)C(N)=O)[C@@H](C)O [SHP1pY564] (H-CSKHKEDV[pY]ENLHTKNK-NH2)
Given back: 4.77

----------
- tested target: α-phosphotyrosine antibody (α-pTyr 100)
- assay: Titration of α-pY antibody on peptide microarrays
- particulars: peptide microarray, α-pY antibody 0.06 to 6.66 nM, 3 h at 4 °C, indirect immunofluorescence (Alexa633), bimolecular binding isotherm (Eq. 1); average ± standard deviation, six independent experiments
Non-standard residues stand in square brackets, D forms with d. Residues, ends and D or L forms follow the SMILES beside them. pY = N[C@@H](Cc1ccc(OP(=O)(O)O)cc1)C(=O)O
Listing of recorded pKd by entry.
Just the number, please; pKd means minus log10 of the concentration in mol/L.

{"columns": ["compound", "parameter measured", "experimental value"],
 "data": [
  ["CC(C)C[C@H](NC(=O)[C@H](CCC(=O)O)NC(=O)[C@H](CCC(N)=O)NC(=O)[C@H](CO)NC(=O)[C@@H](NC(=O)[C@H](CC(N)=O)NC(=O)[C@@H](NC(=O)[C@H](Cc1ccc(OP(=O)(O)O)cc1)NC(=O)[C@H](CCC(=O)O)NC(=O)[C@H](CCCNC(=N)N)NC(=O)[C@H](CO)NC(=O)CNC(=O)[C@H](CC(=O)O)NC(=O)[C@H](CC(C)C)NC(=O)[C@H](CO)NC(=O)[C@H](C)NC(=O)[C@H](CCC(=O)O)NC(=O)[C@@H](N)CS)C(C)C)C(C)C)C(N)=O [LATpY191] (H-CEASLDGSRE[pY]VNVSQEL-NH2)", "pKd", 9.46]
]}

Lab note: next compound to report on.
Asked: Look up and report pKd, with α-phosphotyrosine antibody (α-pTyr 100) as system, for CC(C)C[C@H](NC(=O)[C@H](CCC(=O)O)NC(=O)[C@H](CCC(N)=O)NC(=O)[C@H](CC(C)C)NC(=O)[C@H](CC(N)=O)NC(=O)[C@H](CCC(=O)O)NC(=O)[C@H](Cc1ccc(OP(=O)(O)O)cc1)NC(=O)[C@H](CC(=O)O)NC(=O)[C@@H]1CCCN1C(=O)[C@H](C)NC(=O)CNC(=O)[C@H](CCC(=O)O)NC(=O)[C@H](CCC(=O)O)NC(=O)[C@H](CCC(=O)O)NC(=O)[C@@H](NC(=O)[C@H](CCC(=O)O)NC(=O)[C@@H](N)CS)C(C)C)C(=O)N[C@@H](CC(N)=O)C(N)=O [LATpY226] (H-CEVEEEGAPD[pY]ENLQELN-NH2)
Given back: 9.36

----------
- tested target: α-phosphotyrosine antibody (α-pTyr 100)
- assay: Titration of α-pY antibody on peptide microarrays
- particulars: peptide microarray, α-pY antibody 0.06 to 6.66 nM, 3 h at 4 °C, indirect immunofluorescence (Alexa633), bimolecular binding isotherm (Eq. 1); average ± standard deviation, six independent experiments
Non-standard residues stand in square brackets, D forms with d. Residues, ends and D or L forms follow the SMILES beside them. pY = N[C@@H](Cc1ccc(OP(=O)(O)O)cc1)C(=O)O
Listing: pKd of selected molecules
Friendly reminder that pKd comes from taking -log10 of the concentration in mol/L.

{"columns": ["molecule", "parameter measured", "experimental value"],
 "data": [
  ["CC[C@H](C)[C@H](NC(=O)[C@H](CC(=O)O)NC(=O)[C@H](CC(=O)O)NC(=O)[C@H](Cc1ccc(OP(=O)(O)O)cc1)NC(=O)[C@@H](NC(=O)[C@H](CCC(=O)O)NC(=O)CNC(=O)[C@H](CC(=O)O)NC(=O)[C@H](CC(N)=O)NC(=O)[C@@H](N)CS)[C@@H](C)CC)C(=O)N[C@@H](C)C(=O)N[C@@H](CC(=O)O)C(=O)NCC(N)=O [FYBpY771] (H-CNDGEI[pY]DDIADG-NH2)", "pKd", 9.30],
  ["CSCC[C@H](NC(=O)[C@H](CC(=O)O)NC(=O)[C@H](CC(C)C)NC(=O)[C@@H](N)CS)C(=O)NCC(=O)N[C@@H](CC(=O)O)C(=O)N[C@@H](CCC(=O)O)C(=O)N[C@H](C(=O)N[C@@H](Cc1ccc(OP(=O)(O)O)cc1)C(=O)N[C@@H](CC(=O)O)C(=O)N[C@@H](CC(=O)O)C(=O)N[C@H](C(=O)N[C@@H](CC(=O)O)C(=O)N[C@H](C(=O)N[C@@H](CO)C(=O)N[C@@H](CC(=O)O)C(=O)N[C@@H](Cc1ccccc1)C(N)=O)[C@@H](C)O)C(C)C)C(C)C [FYBpY651] (H-CLDMGDEV[pY]DDVDTSDF-NH2)", "pKd", 9.55]
]}

Now for another entry.
Asked: Let me know recorded pKd for CC[C@H](C)[C@H](NC(=O)[C@H](CCC(=O)O)NC(=O)[C@H](CCCNC(=N)N)NC(=O)[C@H](CCC(=O)O)NC(=O)[C@H](CCC(=O)O)NC(=O)CNC(=O)[C@@H](N)CS)C(=O)N[C@@H](CCC(N)=O)C(=O)N[C@@H](Cc1ccc(OP(=O)(O)O)cc1)C(=O)N[C@@H](C)C(=O)N1CCC[C@H]1C(=O)N[C@@H](CC(C)C)C(=O)N[C@@H](CO)C(=O)N[C@@H](Cc1ccccc1)C(=O)N[C@@H](Cc1c[nH]cn1)C(=O)N[C@@H](CCCCN)C(=O)NCC(N)=O [SigpY437] (H-CGEEREIQ[pY]APLSFHKG-NH2) , thanks.
Given back: 9.18
